Documented IC50 across a set of compounds
# System: intracellular PLA2 (cytosolic PLA2, cPLA2) (Homo sapiens, UniProt P47712)
# Sequence (P47712 1-749): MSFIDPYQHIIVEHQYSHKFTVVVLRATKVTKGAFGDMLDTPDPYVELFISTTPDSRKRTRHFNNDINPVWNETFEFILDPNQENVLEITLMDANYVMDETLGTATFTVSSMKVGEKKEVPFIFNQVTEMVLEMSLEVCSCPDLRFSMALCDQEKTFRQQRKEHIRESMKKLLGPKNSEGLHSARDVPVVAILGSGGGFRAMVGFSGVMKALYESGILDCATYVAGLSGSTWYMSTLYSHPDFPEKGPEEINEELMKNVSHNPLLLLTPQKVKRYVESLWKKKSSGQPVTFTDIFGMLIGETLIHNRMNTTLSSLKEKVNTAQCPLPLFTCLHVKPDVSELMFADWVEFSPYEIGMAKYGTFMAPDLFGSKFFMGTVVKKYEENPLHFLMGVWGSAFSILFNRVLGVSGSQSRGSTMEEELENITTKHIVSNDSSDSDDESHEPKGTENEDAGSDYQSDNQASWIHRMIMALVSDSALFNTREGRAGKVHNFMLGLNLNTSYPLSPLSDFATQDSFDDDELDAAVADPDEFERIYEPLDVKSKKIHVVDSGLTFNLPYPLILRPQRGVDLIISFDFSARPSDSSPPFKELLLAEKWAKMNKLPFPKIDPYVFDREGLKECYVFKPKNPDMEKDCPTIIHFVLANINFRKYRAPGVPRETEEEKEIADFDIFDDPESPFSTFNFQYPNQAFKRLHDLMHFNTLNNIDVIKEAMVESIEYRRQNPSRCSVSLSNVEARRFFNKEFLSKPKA
# Protocol Description: Intracellular PLA2 (cPLA2) inhibitory activity (14C-arachidonyl phosphatidylcholine substrate)
# Test Conditions: 2 μM radiolabelled phosphatidylcholine, 1 μM dioleoylglycerol, 1 mM CaCl2, pH 7.4; read-out: c-PLA2 Inhibition IC50
# Experimental: cPLA2 activity was assayed according to the method described in R. M. Kramer, E. F. Roberts, J. Manetta and J. E. Putnam, J. Biol. Chem., 268 (8), 5268-5272 (1991). Briefly, intracellular PLA2 activity was assayed using supersonic treated […] which contain 1-palmitoyl-2-[^14 C]arachidonyl-sn-glycero-3-phosphocholine and sn-1, 2-dioleoylglycerol at a molar ratio of 2:1. This test mixture contained 1 mM CaCl2, 2 mM dithiothreitol, 150 mM NaCl, 50 mM Hepes, pH 7.4 and 0.1 mg/ml BSA. […]
Expressed in µM, but write only the number.

Example compounds with recorded IC50:
Request: Short answer please: IC50, intracellular PLA2 (cytosolic PLA2, cPLA2) (Homo sapiens, UniProt P47712), entry `COc1c(C)c(OC(=O)c2c(C)c(C)c(OCCCN(Cc3ccccc3)Cc3ccccc3)c(C)c2OC)c(C)c(C)c1C(=O)O`
Result: 2.5

Request: Short answer please: IC50, intracellular PLA2 (cytosolic PLA2, cPLA2) (Homo sapiens, UniProt P47712), entry `COc1c(C)c(OC(=O)c2c(C)c(C)c(OCCCN3CCC(=C(c4ccccc4)c4ccccc4)CC3)c(C)c2OC)c(C)c(C)c1C(=O)O`
Result: 6.8

Continuing:
Request: Short answer please: IC50, intracellular PLA2 (cytosolic PLA2, cPLA2) (Homo sapiens, UniProt P47712), entry `COc1c(C)c(OC(=O)c2c(C)c(C)c(OCCCOc3ccc(Br)cc3)c(C)c2OC)c(C)c(C)c1C(=O)O`
Result: 13

Request: Short answer please: IC50, intracellular PLA2 (cytosolic PLA2, cPLA2) (Homo sapiens, UniProt P47712), entry `COc1c(C)c(OC(=O)c2c(C)c(C)c(OCCCN3C(=O)c4ccccc4C3=O)c(C)c2OC)c(C)c(C)c1C(=O)O`
Result: 25
